Exercise: state measured EC50 CreLuc hGLP1R 100% hP for each of the binders provided.
- EXPERIMENTAL TARGET: human GLP-1 receptor (human, UniProt P43220 24-463)
- EXPERIMENTAL DETAILS: cell-based or functional assay
Starred links: 1 amine or outer side, 2 acyl side, 3 side chain; linkers in the order of their positions; H or OH if unused. Non-standard residues stand in square brackets, D forms with d. Groups on a side chain read outwards from the residue. No end group written: not given here. *: point of attachment. C20 diacid = O=C(O)CCCCCCCCCCCCCCCCCCC(=O)*; C18 diacid = O=C(O)CCCCCCCCCCCCCCCCC(=O)*; γGlu = O=C(O)[C@H](CCC(=O)[*:2])N[*:1]; εLys = N[C@@H](CCCCN[*:1])C(=O)[*:2]; AEEA = NCCOCCOCC(=O)O; Aib = CC(C)(N)C(=O)O
Be sure to follow the number with its unit.

EC50 CreLuc hGLP1R 100% hP for Y[Aib]EGTFTSDYSI[Aib]LEKQAE[Aib]AFVQWLIK([εLys-γGlu-γGlu-γGlu-γGlu-γGlu-C18 diacid])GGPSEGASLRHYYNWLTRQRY-NH2 [Compound 138] is 5.09 nM

EC50 CreLuc hGLP1R 100% hP for YXEGTFTSDYSIXLEKQAQXAFVEWLIKGGPSEGQSIRHYYNWLTRQRY (Aib at 2, 13, 20; K28 side chain: C20DA-gGlu-gGlu-gGlu-gGlu-gGlu-gGlu-eLys; C-terminal NH2) [Compound 134] is 3.94 nM

EC50 CreLuc hGLP1R 100% hP for Y[Aib]EGTFTSDYSI[Aib]LEEQAQ[Aib]AFVEWLIKGGPSSGASLRHYYNWLTRQRY-NH2 (not fully specified (residue 28)) [Compound 105] is 1.66 nM

EC50 CreLuc hGLP1R 100% hP for Y[Aib]EGTFTSDYSI[Aib]LEKQAQ[Aib]AFVEWLIK([AEEA-AEEA-γGlu-γGlu-γGlu-γGlu-C18 diacid])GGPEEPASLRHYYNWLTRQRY-NH2 [Compound 161] is 8.06 nM

EC50 CreLuc hGLP1R 100% hP for Y[Aib]EGTFTSDYSI[Aib]LEKQAQ[Aib]AFVEWLIK([AEEA-AEEA-γGlu-γGlu-γGlu-C18 diacid])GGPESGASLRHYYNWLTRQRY-NH2 [Compound 166] is 4.24 nM

EC50 CreLuc hGLP1R 100% hP for Y[Aib]EGTFTSDYSI[Aib]LEKQAQ[Aib]EFVEWLIK([εLys-γGlu-γGlu-γGlu-γGlu-γGlu-γGlu-γGlu-C20 diacid])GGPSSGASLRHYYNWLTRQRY-NH2 [Compound 88] is 7.18 nM

EC50 CreLuc hGLP1R 100% hP for Y[Aib]EGTFTSDYSI[Aib]LEKQAQ[Aib]AFVEWLLKGGPSSGASLRHYYNWLTRQRY-NH2 (not fully specified (residue 28)) [Compound 109] is 3.32 nM

EC50 CreLuc hGLP1R 100% hP for YXEGTFTSDYSIXLEKQAQXAFVEWLIKGGPSSPASLRHYYNWLTRQRY (Aib at 2, 13, 20; K28 side chain: C20DA-gGlu-gGlu-gGlu-gGlu-gGlu-OEG-OEG; C-terminal NH2) [Compound 120] is 4.65 nM

EC50 CreLuc hGLP1R 100% hP for Y[Aib]EGTFTSDYSI[Aib]LEKQAQ[Aib]EFVEWLIK([AEEA-AEEA-γGlu-γGlu-γGlu-γGlu-C18 diacid])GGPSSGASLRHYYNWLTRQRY-NH2 [Compound 145] is 7.29 nM

EC50 CreLuc hGLP1R 100% hP for Y[Aib]EGTFTSDYSI[Aib]LEKQAQ[Aib]AFVQWLIK([εLys-γGlu-γGlu-γGlu-γGlu-γGlu-C18 diacid])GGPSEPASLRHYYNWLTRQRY-NH2 [Compound 148] is 1.46 nM

EC50 CreLuc hGLP1R 100% hP for Y[Aib]EGTFTSDYSI[Aib]LEKQAQ[Aib]AFVQWLIKGGPSEPASLRHYYNWLTRQRY-NH2 (not fully specified (residue 28)) [Compound 101] is 2.5 nM

EC50 CreLuc hGLP1R 100% hP for YXEGTFTSDYSIXLEKQAQXAFVQWLIKGGPSEGVSLRHYYNWLTRQRY (Aib at 2, 13, 20; K28 side chain: C20DA-gGlu-gGlu-gGlu-gGlu-gGlu-gGlu-eLys; C-terminal NH2) [Compound 114] is 5.56 nM

EC50 CreLuc hGLP1R 100% hP for YXEGTFTSDYSIXLEKQAQXAFVEWLIKGGPRSGASLRHYYNWLTRQRY (Aib at 2, 13, 20; K28 side chain: C20DA-gGlu-gGlu-gGlu-gGlu-gGlu-gGlu-eLys; C-terminal NH2) [Compound 168] is 3.59 nM

EC50 CreLuc hGLP1R 100% hP for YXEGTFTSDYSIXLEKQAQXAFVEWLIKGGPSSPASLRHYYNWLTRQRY (Aib at 2, 13, 20; K28 side chain: C20DA-gGlu-gGlu-gGlu-gGlu-gGlu-gGlu-eLys; C-terminal NH2) [Compound 95] is 2.76 nM

EC50 CreLuc hGLP1R 100% hP for YXEGTFTSDYSIXLEKQAQXAFVEWLIKGGPSSGLSLRHYYNWLTRQRY (Aib at 2, 13, 20; K28 side chain: C20DA-gGlu-gGlu-gGlu-gGlu-gGlu-gGlu-eLys; C-terminal NH2) [Compound 107] is 1.88 nM

EC50 CreLuc hGLP1R 100% hP for Y[Aib]EGTFTSDYSI[Aib]LEKQAQ[Aib]EFVQWLIKGGPSEGASLRHYYNWLTRQRY-NH2 (not fully specified (residue 28)) [Compound 164] is 6.48 nM

EC50 CreLuc hGLP1R 100% hP for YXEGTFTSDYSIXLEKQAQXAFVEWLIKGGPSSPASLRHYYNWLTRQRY (Aib at 2, 13, 20; K28 side chain: C18DA-gGlu-gGlu-gGlu-gGlu-gGlu-OEG-OEG; C-terminal NH2) [Compound 140] is 3.11 nM

EC50 CreLuc hGLP1R 100% hP for YXEGTFTSDYSIXLEKQAQXAFVEWLIKGGPSSGASLRHYINWLTRQRY (Aib at 2, 13, 20; K28 side chain: C20DA-gGlu-gGlu-gGlu-gGlu-gGlu-gGlu-eLys; C-terminal NH2) [Compound 106] is 3.56 nM

EC50 CreLuc hGLP1R 100% hP for YXEGTFTSDYSIXLEKQAQXAFVEWLIKGGPSSGASLRHYXNWLTRQRY (Aib at 2, 13, 20; Tle at 41; K28 side chain: C20DA-gGlu-gGlu-gGlu-gGlu-gGlu-gGlu-eLys; C-terminal NH2) [Compound 133] is 3.01 nM
